Test system: A2780 ovarian cancer cells
Assay: Cellular proliferation in A2780 cells, Cell Titer Glo (Biological Method 4)
Assay type: cell-based
Settings: Homo sapiens; ovarian cancer cell line A2780
Examples of molecules with documented EC50 follow.

MOLECULE: CS(=O)(=O)c1cccc(-c2cc(-c3cnc(N)cc3C#N)nc(N3CCOCC3)n2)c1 [Compound 92]
EC50: < 1 µM

MOLECULE: CC(=O)N1CCC[C@@H](Oc2cc(-c3cnc(N)cc3C(F)(F)F)nc(N3CCOCC3)n2)C1 [Compound 453]
EC50: < 10 µM

MOLECULE: Cc1c(Nc2cnc3ccccc3c2)nc(N2CCOCC2)nc1-c1cnc(N)nc1 [Compound 103]
EC50: < 1 µM

MOLECULE: N#Cc1cccc(Nc2cc(-c3ccc(N)nc3)nc(N3CCOCC3)n2)c1 [Compound 437]
EC50: < 10 µM
